Answer each item with its documented log10(IC50).
target: Gonadotropin-releasing hormone receptor (Homo sapiens, UniProt P30968); experiment: Displacement of [125I]D-Trp6-LHRH from human GnRH receptor expressed in CHO-K1 cell membranes incubated for 1 hr by competitive binding assay
Sequence (P30968 whole entry): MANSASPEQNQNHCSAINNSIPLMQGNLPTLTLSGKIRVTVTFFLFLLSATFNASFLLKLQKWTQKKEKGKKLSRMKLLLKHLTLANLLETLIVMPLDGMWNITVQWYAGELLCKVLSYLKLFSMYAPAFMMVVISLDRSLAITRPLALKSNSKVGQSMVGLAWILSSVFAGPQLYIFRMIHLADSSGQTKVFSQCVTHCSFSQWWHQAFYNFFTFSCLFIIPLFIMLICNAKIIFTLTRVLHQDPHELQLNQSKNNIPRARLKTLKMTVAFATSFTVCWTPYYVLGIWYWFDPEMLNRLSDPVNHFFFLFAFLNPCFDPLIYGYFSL
Values are log10 of IC50 in nM.

(Q) # get_value(readout='log10(IC50)', item= Cc1c(N2CCN(Cc3nccs3)CC2)c(=O)n(C[C@H](N)c2ccccc2)c(=O)n1Cc1c(F)cccc1C(F)(F)F )
(A) 1.25

(Q) # get_value(readout='log10(IC50)', item= Cc1c(N2CCN(Cc3ccc(C(F)(F)F)o3)CC2)c(=O)n(C[C@H](N)c2ccccc2)c(=O)n1Cc1c(F)cccc1C(F)(F)F )
(A) -0.02

(Q) # get_value(readout='log10(IC50)', item= Cc1c(N2CCN(Cc3cccc(C(=O)NCCCC(=O)O)c3)CC2)c(=O)n(C[C@H](N)c2ccccc2)c(=O)n1Cc1c(F)cccc1C(F)(F)F )
(A) 0.04

(Q) # get_value(readout='log10(IC50)', item= Cc1c(N2CCN(Cc3ccc(Cl)nc3)CC2)c(=O)n(C[C@H](N)c2ccccc2)c(=O)n1Cc1c(F)cccc1C(F)(F)F )
(A) 0.58

(Q) # get_value(readout='log10(IC50)', item= Cc1c(N2CCN(Cc3ccccc3C(F)(F)F)CC2)c(=O)n(C[C@H](N)c2ccccc2)c(=O)n1Cc1c(F)cccc1F )
(A) 1.82

(Q) # get_value(readout='log10(IC50)', item= Cc1c(N2CCN(Cc3cccc(C(F)(F)F)c3)CC2)c(=O)n(C[C@H](NCCCC(=O)O)c2ccccc2)c(=O)n1Cc1c(F)cccc1C(F)(F)F )
(A) -0.17

(Q) # get_value(readout='log10(IC50)', item= Cc1c(N2CCCCC2)c(=O)n(C[C@H](N)c2ccccc2)c(=O)n1Cc1c(F)cccc1F )
(A) 2.11

(Q) # get_value(readout='log10(IC50)', item= Cc1c(N2CCN(Cc3cncs3)CC2)c(=O)n(C[C@H](N)c2ccccc2)c(=O)n1Cc1c(F)cccc1C(F)(F)F )
(A) 0.95

Each of the following entries comes with a recorded value; kindly state log10(IC50) for each.
1. Cc1c(N2CCN(Cc3ccc(C#N)cc3)CC2)c(=O)n(C[C@H](N)c2ccccc2)c(=O)n1Cc1c(F)cccc1C(F)(F)F
2. COC(=O)c1cccc(CN2CCN(c3c(C)n(Cc4c(F)cccc4C(F)(F)F)c(=O)n(C[C@H](N)c4ccccc4)c3=O)CC2)c1
3. Cc1c(N2CCN(Cc3ccccc3C#N)CC2)c(=O)n(C[C@H](N)c2ccccc2)c(=O)n1Cc1c(F)cccc1C(F)(F)F
4. Cc1ccc(CN2CCN(c3c(C)n(Cc4c(F)cccc4F)c(=O)n(C[C@H](N)c4ccccc4)c3=O)CC2)cc1
5. Cc1ncccc1CN1CCN(c2c(C)n(Cc3c(F)cccc3C(F)(F)F)c(=O)n(C[C@H](N)c3ccccc3)c2=O)CC1

(A)
0.06
-0.41
-0.49
1.82
0.71
